# EC50 values compiled below
Target: Voltage-dependent T-type calcium channel subunit alpha-1H (Homo sapiens, UniProt O95180);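 further: channel activity triggered by adding a high calcium stimulation buffer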
Sequence (O95180 whole entry): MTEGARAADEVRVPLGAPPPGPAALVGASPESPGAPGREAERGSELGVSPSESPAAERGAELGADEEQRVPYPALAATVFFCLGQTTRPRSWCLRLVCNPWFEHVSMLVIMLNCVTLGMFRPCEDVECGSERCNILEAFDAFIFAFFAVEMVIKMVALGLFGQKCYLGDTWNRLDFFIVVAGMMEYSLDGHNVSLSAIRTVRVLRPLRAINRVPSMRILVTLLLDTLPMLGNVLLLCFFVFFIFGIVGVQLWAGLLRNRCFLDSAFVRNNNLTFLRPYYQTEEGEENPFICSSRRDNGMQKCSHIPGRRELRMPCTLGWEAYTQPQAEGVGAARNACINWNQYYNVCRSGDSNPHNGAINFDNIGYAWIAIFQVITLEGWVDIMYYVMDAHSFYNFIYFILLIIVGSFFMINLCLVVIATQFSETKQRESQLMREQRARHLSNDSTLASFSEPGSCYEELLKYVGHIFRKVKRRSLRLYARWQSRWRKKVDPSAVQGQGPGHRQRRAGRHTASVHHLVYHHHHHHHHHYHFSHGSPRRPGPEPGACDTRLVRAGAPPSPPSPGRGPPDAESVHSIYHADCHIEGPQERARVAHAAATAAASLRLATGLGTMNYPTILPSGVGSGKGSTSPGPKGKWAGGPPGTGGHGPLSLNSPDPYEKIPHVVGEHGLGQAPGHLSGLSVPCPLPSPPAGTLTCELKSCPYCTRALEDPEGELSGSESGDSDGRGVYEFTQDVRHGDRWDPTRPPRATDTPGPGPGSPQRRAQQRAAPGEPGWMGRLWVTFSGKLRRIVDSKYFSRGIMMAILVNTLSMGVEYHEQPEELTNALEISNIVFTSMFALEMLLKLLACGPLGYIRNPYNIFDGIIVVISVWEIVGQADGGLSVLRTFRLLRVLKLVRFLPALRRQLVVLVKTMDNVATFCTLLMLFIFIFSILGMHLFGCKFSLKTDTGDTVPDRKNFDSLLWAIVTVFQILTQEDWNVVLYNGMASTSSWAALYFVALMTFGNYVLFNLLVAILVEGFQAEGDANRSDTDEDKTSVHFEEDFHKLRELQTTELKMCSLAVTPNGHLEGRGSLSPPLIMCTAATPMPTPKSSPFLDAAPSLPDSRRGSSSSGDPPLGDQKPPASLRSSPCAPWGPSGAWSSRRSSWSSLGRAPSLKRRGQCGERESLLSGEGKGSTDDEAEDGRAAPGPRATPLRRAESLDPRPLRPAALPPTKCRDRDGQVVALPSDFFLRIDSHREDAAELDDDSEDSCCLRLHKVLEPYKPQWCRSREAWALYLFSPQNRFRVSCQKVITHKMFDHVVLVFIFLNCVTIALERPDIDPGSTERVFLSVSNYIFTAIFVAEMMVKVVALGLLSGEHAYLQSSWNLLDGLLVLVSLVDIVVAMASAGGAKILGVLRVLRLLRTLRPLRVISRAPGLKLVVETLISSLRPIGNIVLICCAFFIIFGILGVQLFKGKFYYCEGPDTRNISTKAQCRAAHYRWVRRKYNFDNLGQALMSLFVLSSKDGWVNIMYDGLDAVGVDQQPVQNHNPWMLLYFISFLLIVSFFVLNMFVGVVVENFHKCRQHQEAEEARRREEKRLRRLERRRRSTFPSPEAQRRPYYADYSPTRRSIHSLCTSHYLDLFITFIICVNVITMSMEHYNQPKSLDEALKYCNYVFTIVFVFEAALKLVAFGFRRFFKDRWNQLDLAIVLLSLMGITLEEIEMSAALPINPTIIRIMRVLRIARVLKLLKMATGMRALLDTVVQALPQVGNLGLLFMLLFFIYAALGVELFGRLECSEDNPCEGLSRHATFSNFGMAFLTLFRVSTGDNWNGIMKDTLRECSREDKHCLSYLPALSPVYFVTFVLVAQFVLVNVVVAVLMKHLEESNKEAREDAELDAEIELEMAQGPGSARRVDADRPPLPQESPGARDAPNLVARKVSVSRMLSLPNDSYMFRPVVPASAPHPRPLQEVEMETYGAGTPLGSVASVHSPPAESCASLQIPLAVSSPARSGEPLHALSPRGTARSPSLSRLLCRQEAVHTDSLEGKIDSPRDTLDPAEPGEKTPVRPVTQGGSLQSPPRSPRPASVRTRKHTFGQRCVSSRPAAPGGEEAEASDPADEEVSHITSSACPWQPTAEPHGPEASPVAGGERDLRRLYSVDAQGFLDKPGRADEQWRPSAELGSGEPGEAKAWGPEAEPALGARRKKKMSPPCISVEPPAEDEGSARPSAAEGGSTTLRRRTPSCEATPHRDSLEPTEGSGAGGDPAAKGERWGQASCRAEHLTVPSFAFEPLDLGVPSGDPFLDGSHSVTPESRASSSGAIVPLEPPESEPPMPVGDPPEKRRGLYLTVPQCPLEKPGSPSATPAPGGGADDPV
Format: functional
The source made the active and inactive calls.

| molecule | EC50 |
| --- | --- |
| CCCCN(Cc1ccccc1)S(=O)(=O)c1cc(Br)cc2c1N(C(C)=O)C(C)C2 (centres undefined) | 18.2 µM (active) |
| O=C(Nc1ccc(Cl)c(C(F)(F)F)c1)c1ccco1 | 10.6 µM (active) |
| COc1ccccc1N1CCN(CC(O)COc2ccc3c(c2)CCC3)CC1 (centres undefined) | 5.92 µM (active) |
| Cc1[nH]c2ccccc2c1Cc1nnc(SCc2ccccc2)o1 | 3.55 µM (active) |
| O=C(c1cc2sccc2n1Cc1ccc(F)cc1)N1CCCc2ccccc21 | 4.88 µM (active) |
| O=C(c1ccc(Cl)c(Cl)c1)N1CCC(=O)N(C(COCc2ccccc2)Cc2ccccc2)CC1 (centres undefined) | 2.88 µM (active) |
| O=C(Nc1nnc(-c2cccs2)o1)c1cccc(Oc2ccccc2)c1 | 3.02 µM (active) |
| CCN(c1ccccc1)S(=O)(=O)c1ccc(NCC2COc3ccccc3O2)nc1 (centres undefined) | 7.97 µM (active) |
| CCC(=O)C1=C(NCCc2c(C)[nH]c3ccc(C)cc23)CC(c2ccccc2)CC1=O (centres undefined) | 798 µM (active) |
